test system: Enterococcus faecium; assay: Antibacterial activity against antibiotic-susceptile Enterococcus faecium ATCC 49624 after 18 hrs by brain heart infusion broth microdilution method; format: functional; settings: ATCC 49624, 18 h

# molecule, target, MIC
data = [
    ("Cc1ccc(Nc2c3ccccc3[n+](C)c3c2oc2ccccc23)cc1C.[I-]", "Enterococcus faecium", "8 µg/mL"),
    ("CCOc1ccccc1Nc1c2ccccc2[n+](C)c2c1[nH]c1ccccc12.[I-]", "Enterococcus faecium", "6 µg/mL"),
    ("Cc1ccc(Nc2c3ccccc3[n+](C)c3c2oc2ccccc23)cc1F.[I-]", "Enterococcus faecium", "8 µg/mL"),
    ("C[n+]1c2ccccc2c(Nc2cccc(F)c2)c2oc3ccccc3c21.[I-]", "Enterococcus faecium", "12 µg/mL"),
    ("Cc1cc(F)ccc1Nc1c2ccccc2[n+](C)c2c1[nH]c1ccccc12.[I-]", "Enterococcus faecium", "8 µg/mL"),
]

###

system: Pseudomonas aeruginosa; experiment: Antibacterial activity against multidrug-resistant Pseudomonas aeruginosa ATCC BAA2108 after 18 hrs by Mueller-Hinton broth microdilution method; type: functional; settings: ATCC BAA2108, 18 h

# molecule, MIC
measured = [
    ("Cc1ccc(Nc2c3ccccc3[n+](C)c3c2[nH]c2ccccc23)cc1C.[I-]", "> 64 µg/mL"),
    ("COc1cccc(OC)c1C(=O)N[C@@H]1C(=O)N2[C@@H]1SC(C)(C)[C@@H]2C(=O)O", "> 192 µg/mL"),
    ("C[n+]1c2ccccc2c(Nc2cccc(F)c2)c2[nH]c3ccccc3c21.[I-]", "> 64 µg/mL"),
    ("C[n+]1c2ccccc2c(Nc2ccccc2)c2oc3ccccc3c21.[I-]", "> 64 µg/mL"),
    ("Cc1ccccc1Nc1c2ccccc2[n+](C)c2c1[nH]c1ccccc12.[I-]", "> 64 µg/mL"),
]

###

test system: Escherichia coli; test: Antibacterial activity against Escherichia coli ATCC 25922 after 18 hrs by Mueller-Hinton broth microdilution method; format: functional; conditions: ATCC 25922, 18 h

# molecule, MIC, µg/mL
data = [
    ("CCc1ccc(Nc2c3ccccc3[n+](C)c3c2[nH]c2ccccc23)cc1.[I-]", 8),
    ("C[n+]1c2ccccc2c(Nc2cccc(F)c2)c2oc3ccccc3c21.[I-]", 16),
    ("CCOc1ccccc1Nc1c2ccccc2[n+](C)c2c1oc1ccccc12.[I-]", 12),
    ("COc1ccccc1Nc1c2ccccc2[n+](C)c2c1[nH]c1ccccc12.[I-]", 8),
]

###

Let's look at some compounds and their measured MIC.
test system: Enterococcus faecium; assay: Antibacterial activity against vancomycin-resistant Enterococcus faecium ATCC 700221 after 18 hrs by brain heart infusion broth microdilution method; type: functional; details: ATCC 700221, 18 h
value type: MIC

# compound, reported value
rows = [
    ("COc1ccc(Nc2c3ccccc3[n+](C)c3c2oc2ccccc23)cc1.[I-]", "6 µg/mL"),
    ("Cc1cc(F)ccc1Nc1c2ccccc2[n+](C)c2c1oc1ccccc12.[I-]", "8 µg/mL"),
    ("C[n+]1c2ccccc2c(Nc2cccc(F)c2)c2[nH]c3ccccc3c21.[I-]", "6 µg/mL"),
    ("CCOc1ccc(Nc2c3ccccc3[n+](C)c3c2oc2ccccc23)cc1.[I-]", "8 µg/mL"),
    ("C[n+]1c2ccccc2c(Nc2ccccc2)c2[nH]c3ccccc3c21.[I-]", "8 µg/mL"),
    ("Cc1ccc(Nc2c3ccccc3[n+](C)c3c2oc2ccccc23)cc1.[I-]", "8 µg/mL"),
    ("C[n+]1c2ccccc2c(Nc2ccc(Cl)cc2)c2oc3ccccc3c21.[I-]", "8 µg/mL"),
    ("CCc1ccc(Nc2c3ccccc3[n+](C)c3c2[nH]c2ccccc23)cc1.[I-]", "6 µg/mL"),
    ("C[n+]1c2ccccc2c(Nc2ccc(OC(F)(F)F)cc2)c2oc3ccccc3c21.[I-]", "6 µg/mL"),
    ("Cc1ccc(Nc2c3ccccc3[n+](C)c3c2[nH]c2ccccc23)cc1F.[I-]", "8 µg/mL"),
    ("Cc1ccccc1Nc1c2ccccc2[n+](C)c2c1oc1ccccc12.[I-]", "12 µg/mL"),
    ("CCOc1ccccc1Nc1c2ccccc2[n+](C)c2c1oc1ccccc12.[I-]", "8 µg/mL"),
    ("Cc1cc(C)cc(Nc2c3ccccc3[n+](C)c3c2oc2ccccc23)c1.[I-]", "8 µg/mL"),
    ("C[n+]1c2ccccc2c(Nc2ccccc2)c2oc3ccccc3c21.[I-]", "12 µg/mL"),
    ("CCOc1ccccc1Nc1c2ccccc2[n+](C)c2c1[nH]c1ccccc12.[I-]", "6 µg/mL"),
    ("COc1ccc2cc3[n+](cc2c1OC)CCc1cc2c(cc1-3)OCO2.[Cl-] [BERBERINE CHLORIDE]", "> 192 µg/mL"),
    ("Cc1ccccc1Nc1c2ccccc2[n+](C)c2c1[nH]c1ccccc12.[I-]", "8 µg/mL"),
    ("C[n+]1c2ccccc2c(Nc2cccc(F)c2)c2oc3ccccc3c21.[I-]", "12 µg/mL"),
    ("COc1ccccc1Nc1c2ccccc2[n+](C)c2c1[nH]c1ccccc12.[I-]", "8 µg/mL"),
    ("COc1cccc(Nc2c3ccccc3[n+](C)c3c2[nH]c2ccccc23)c1.[I-]", "8 µg/mL"),
    ("C[n+]1c2ccccc2c(Nc2ccc(F)cc2F)c2oc3ccccc3c21.[I-]", "8 µg/mL"),
    ("Cc1ccc(Nc2c3ccccc3[n+](C)c3c2oc2ccccc23)cc1C.[I-]", "8 µg/mL"),
    ("Cc1ccc(Nc2c3ccccc3[n+](C)c3c2[nH]c2ccccc23)cc1C.[I-]", "8 µg/mL"),
    ("C[n+]1c2ccccc2c(Nc2ccc(OC(F)(F)F)cc2)c2[nH]c3ccccc3c21.[I-]", "4 µg/mL"),
    ("Cc1ccc(Nc2c3ccccc3[n+](C)c3c2oc2ccccc23)cc1F.[I-]", "8 µg/mL"),
    ("CCc1ccc(Nc2c3ccccc3[n+](C)c3c2oc2ccccc23)cc1.[I-]", "8 µg/mL"),
    ("Cc1cc(F)ccc1Nc1c2ccccc2[n+](C)c2c1[nH]c1ccccc12.[I-]", "8 µg/mL"),
    ("CN[C@H](CC(C)C)C(=O)N[C@H]1C(=O)N[C@@H](CC(N)=O)C(=O)N[C@H]2C(=O)N[C@H]3C(=O)N[C@H](C(=O)N[C@H](C(=O)O)c4cc(O)cc(O)c4-c4cc3ccc4O)[C@H](O)c3ccc(c(Cl)c3)Oc3cc2cc(c3O[C@@H]2O[C@H](CO)[C@@H](O)[C@H](O)[C@H]2O[C@H]2C[C@](C)(N)[C@H](O)[C@H](C)O2)Oc2ccc(cc2Cl)[C@H]1O", "> 64 µg/mL"),
    ("C[n+]1c2ccccc2c(Nc2ccc(Cl)cc2)c2[nH]c3ccccc3c21.[I-]", "6 µg/mL"),
    ("COc1cccc(Nc2c3ccccc3[n+](C)c3c2oc2ccccc23)c1.[I-]", "8 µg/mL"),
]

src = ChEMBL document CHEMBL4052617
